All figures here come from PubChem BioAssay AID1851.

Each record here notes measured activity, negative = inhibition.
molecular target: Cytochrome P450 3A4 (Homo sapiens); test: Cytochrome panel assay with activity outcomes; details: recombinant CYP, pro-luciferin dealkylation, luminescence, p450-cyp3a4; series mostly up to 57.1 µM; for activity, negative = inhibition: % is set by controls: 0 for no effect and ±100 for the full control effect
In all, about 16,000 compounds went through this assay and about 5,100 (32%) were called active. Not shown: some 25% with an inconclusive outcome. The list shows a part of the results.

| query-smiles | target-or-system | observed-measurement |
| --- | --- | --- |
| Cc1cc(C)c(S(C)(=O)=O)c(Oc2ccc(F)cc2)n1 | Cytochrome P450 3A4 (Homo sapiens) | 26.1% [at 2.29 µM] (inactive) |
| N[C@@H]1[C@@H]2[C@@H]3C[C@H]4N(CC[C@@]14C(=O)C(=O)O)CC3=CCO[C@@H]2CC(=O)O | Cytochrome P450 3A4 (Homo sapiens) | -11.7% [at 11.4 µM] (inactive) |
| Cc1ncc(CSC(=N)N)n1Cc1ccccc1 | Cytochrome P450 3A4 (Homo sapiens) | 6.78% [at 11.4 µM] (inactive) |
| O=C(O)CCCSc1nc2ccccc2s1 | Cytochrome P450 3A4 (Homo sapiens) | -9.94% [at 11.4 µM] (inactive) |
| CCOC(=O)Nc1nc(-c2ccccc2)c(C)s1 | Cytochrome P450 3A4 (Homo sapiens) | -11.6% [at 11.4 µM] (inactive) |
| O=[N+]([O-])c1cc(Cc2cc([N+](=O)[O-])c3cccnc3c2O)c(O)c2ncccc12 | Cytochrome P450 3A4 (Homo sapiens) | -19.6% [at 11.4 µM] (inactive) |

Would you mind telling me what activity, negative = inhibition value was observed for O=C(/C=C/c1ccc2c(c1)OCO2)NCCSCc1cccc(Cl)c1 ?
18.2% [at 2.29 µM] (inactive)

Would you mind telling me what activity, negative = inhibition value was observed for N/C(=N\O)c1cn([C@@H]2O[C@@H](CO)[C@H](O)[C@@H]2O)c2ncnc(NO)c12 ?
-7.27% [at 11.4 µM] (inactive)

Would you mind telling me what activity, negative = inhibition value was observed for O=C(O)Cn1ccnc1[N+](=O)[O-] ?
1.73% [at 11.4 µM] (inactive)

Would you mind telling me what activity, negative = inhibition value was observed for COc1ccc(/C=N/NC(=O)c2ccn[nH]2)cc1COc1ccc(Cl)cc1 ?
-16.8% [at 2.29 µM] (inactive)

Would you mind telling me what activity, negative = inhibition value was observed for CC(=O)OC[C@@H]1O[C@@H](O/N=C2/C[C@@H](O)[C@@H](O)[C@@H]3[C@@H]4C(=O)N([C@@H](C)c5ccccc5)C(=O)[C@H]4CC[C@@H]23)[C@H](OC(C)=O)[C@H](OC(C)=O)[C@@H]1OC(C)=O ?
-21% [at 11.4 µM] (inactive)

====

target: Cytochrome P450 3A4 (Homo sapiens); experiment: Cytochrome panel assay with activity outcomes; settings: recombinant CYP, pro-luciferin dealkylation, luminescence, p450-cyp3a4; series mostly up to 57.1 µM
Hit rate of the full screen: of about 16,000 compounds, about 5,100 (32%) were called active. Inconclusive results (about 25%) are left out. Calls follow the shape of the dose curve; as a rule, active = well fitted curve in the direction sought with a large enough effect; inconclusive = small, poorly fitted or top-dose-only effect, or effect the other way; inactive = no such curve, though single readings can be large or run the other way. The list shows a part of the results.
Would you mind answering with one of these outcomes? active, inactive

The examples below pair each entry with its known result.
| compound | target-or-system | discrete-label |
| --- | --- | --- |
| Cn1cc(C(=O)c2ccc(Cl)cc2Cl)cc1C(=O)O | Cytochrome P450 3A4 (Homo sapiens) | inactive |
| CCc1ccc(OCC(=O)OC2CCS(=O)(=O)C2)cc1 (stereo unspecified) | Cytochrome P450 3A4 (Homo sapiens) | inactive |
| O=C(c1ccccc1)N(Cc1ccco1)C1CCS(=O)(=O)C1 (stereo unspecified) | Cytochrome P450 3A4 (Homo sapiens) | inactive |
| O=C(c1sc2ccccc2c1Cl)N(Cc1ccccc1)C1CCS(=O)(=O)C1 (stereo unspecified) | Cytochrome P450 3A4 (Homo sapiens) | active |

How was CCCC/C=C/C(NC(=O)c1ccccc1)c1ccccc1 (stereo unspecified) classified in this test?
active

How was CCCC/C=C/C(NC(=O)c1cccs1)c1ccccc1 (stereo unspecified) classified in this test?
active

How was CCCN(CCC)C(=O)[C@@H](CCC(=O)O)NC(=O)c1ccccc1 classified in this test?
inactive

How was CCCC/C=C/C(NC(=O)c1ccc(-c2ccccc2)cc1)c1ccccc1 (stereo unspecified) classified in this test?
inactive

How was CCOc1ccc(CN(C(=O)c2oc3ccccc3c2C)C2CCS(=O)(=O)C2)cc1 (stereo unspecified) classified in this test?
active

How was CCCCCCCCCCCCC/C=C\[C@@H](O)[C@H](CO)NC(C)=O classified in this test?
inactive

How was COc1cccc(-c2cc(NCc3cnc(C)cn3)ncn2)c1 classified in this test?
active
